Provenance of the data: ChEMBL document CHEMBL3797160

Target: Proto-oncogene tyrosine-protein kinase receptor Ret (Homo sapiens)
Experiment: Inhibition of RET (unknown origin) at 10 uM after 1 hr by mobility shift assay
Measurement type: inhibition (%)

Use the examples below as a reference point.
INSERT INTO results (compound, unit_text, observed) VALUES
  ('CN(C)CCn1cnnc1-c1cc(Oc2ccc(NC(=O)Nc3ccc(Cl)c(C(F)(F)F)c3)cc2F)ccn1', '%', 74.1),
  ('CNC(=O)c1cc(Oc2ccc(NC(=O)Nc3ccc(Cl)c(C(F)(F)F)c3)cc2)ccn1 [SORAFENIB]', '%', 97);

(a) CN(C)CCCn1cnnc1-c1cc(Oc2ccc(NC(=O)Nc3cccc(C(F)(F)F)c3)cc2F)ccn1
(b) CCN(CC)CCn1cnnc1-c1cc(Oc2ccc(NC(=O)Nc3ccc(F)c(F)c3)cc2F)ccn1
(c) CN(C)CCn1cnnc1-c1cc(Oc2ccc(NC(=O)Nc3ccccc3C(F)(F)F)cc2F)ccn1
Form: Sort by [inhibition] Order [ ascending ] # respond with the labels, arranged in the requested order
b, c, a
